# system-name: MAP/microtubule affinity-regulating kinase 4 (Homo sapiens);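 further: values are averaged percent inhibition of MARK4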
# particulars: at 0.1 µM
Each entry below lists one item and its recorded inhibition value.
// note: answer is a bare numeric in %

>>> reported_measurement("Nc1nccc(C#Cc2cncnc2Nc2ccc(OCc3cccc(F)c3)c(Cl)c2)n1")
3.04
>>> reported_measurement("Nc1nccc(-c2c(-c3ccc(F)cc3)ncn2CCCN2CCOCC2)n1")
1.4
>>> reported_measurement("CN(C)CCCn1c(-c2nonc2N)nc2cnccc21")
2.41
>>> reported_measurement("COc1cc2ncnc(Nc3ccc4c(cnn4Cc4ccccc4)c3)c2cc1OC")
1.05
>>> reported_measurement("Cc1ccc2c(c1)/C(=N/Nc1ccc(S(N)(=O)=O)cc1)C(=O)N2")
1.51
>>> reported_measurement("COC(=O)c1cncc(/C=C/c2c(C)cc(O)cc2C)c1")
0.01

Now take the following compound into account.
Prompt line: Entry under review: `CN1CCN(C(=O)c2ccc(NC(=O)Nc3ccc(N(C)c4ccnc(Nc5ccc(CS(C)(=O)=O)cc5)n4)cc3)cc2)CC1` . Reported inhibition?
Response line: 2.48

---

# system-name: Vascular endothelial growth factor receptor 1 (Homo sapiens) (UniProt P17948)
# Sequence (P17948 whole entry): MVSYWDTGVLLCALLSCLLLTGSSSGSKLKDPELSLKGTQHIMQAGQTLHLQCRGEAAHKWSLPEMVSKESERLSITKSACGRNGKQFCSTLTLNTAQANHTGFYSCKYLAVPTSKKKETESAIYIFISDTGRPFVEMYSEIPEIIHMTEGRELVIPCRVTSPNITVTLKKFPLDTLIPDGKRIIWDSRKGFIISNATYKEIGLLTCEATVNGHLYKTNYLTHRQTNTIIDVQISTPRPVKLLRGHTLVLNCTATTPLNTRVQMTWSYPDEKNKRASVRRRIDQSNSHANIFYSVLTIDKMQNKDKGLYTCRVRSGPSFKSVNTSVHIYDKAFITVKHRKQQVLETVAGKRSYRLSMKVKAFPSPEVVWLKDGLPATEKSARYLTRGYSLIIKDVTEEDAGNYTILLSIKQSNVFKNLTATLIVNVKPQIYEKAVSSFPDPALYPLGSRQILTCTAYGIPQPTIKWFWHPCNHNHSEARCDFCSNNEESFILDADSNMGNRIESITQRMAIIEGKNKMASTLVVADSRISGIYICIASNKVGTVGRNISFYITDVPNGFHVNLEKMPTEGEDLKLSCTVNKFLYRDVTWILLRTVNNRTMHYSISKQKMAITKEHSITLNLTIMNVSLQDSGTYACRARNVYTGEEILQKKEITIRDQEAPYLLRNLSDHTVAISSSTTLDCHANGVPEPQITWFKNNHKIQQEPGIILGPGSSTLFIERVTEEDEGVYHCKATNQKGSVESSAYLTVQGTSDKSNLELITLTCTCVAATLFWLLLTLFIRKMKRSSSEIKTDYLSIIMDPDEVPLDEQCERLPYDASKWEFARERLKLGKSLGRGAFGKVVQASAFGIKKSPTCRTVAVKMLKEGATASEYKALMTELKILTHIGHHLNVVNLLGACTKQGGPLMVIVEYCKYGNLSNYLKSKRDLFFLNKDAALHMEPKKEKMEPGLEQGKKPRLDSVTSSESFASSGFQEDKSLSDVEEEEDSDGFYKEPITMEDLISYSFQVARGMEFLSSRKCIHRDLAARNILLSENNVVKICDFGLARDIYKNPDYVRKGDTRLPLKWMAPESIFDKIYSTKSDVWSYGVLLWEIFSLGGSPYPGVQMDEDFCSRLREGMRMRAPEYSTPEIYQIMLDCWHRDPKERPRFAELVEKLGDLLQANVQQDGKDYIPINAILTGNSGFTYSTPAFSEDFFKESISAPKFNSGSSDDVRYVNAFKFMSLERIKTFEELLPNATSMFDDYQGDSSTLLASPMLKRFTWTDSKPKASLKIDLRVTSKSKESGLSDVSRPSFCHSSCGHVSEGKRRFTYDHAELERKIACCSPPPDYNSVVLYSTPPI
# particulars: at 1 µM
# Description: GSK_PKIS: FLT1 mean inhibition at 1 uM [Nanosyn]
measurement-label: inhibition

Some solved entries appear below for comparison.
>>> reported_measurement("CN1CCN(C(=O)c2ccc(NC(=O)Nc3ccc(N(C)c4ccnc(Nc5ccc(CS(C)(=O)=O)cc5)n4)cc3)cc2)CC1")
"43.5%"
>>> reported_measurement("N#Cc1c(NC(=O)c2ccccc2F)sc2c1CCCC2")
"-1.09%"
>>> reported_measurement("Cc1ccc(NC(=O)CC2CC2)cc1-c1ccc(C(=O)NCC2CC2)cc1")
"1.74%"

Prompt line: // returns reported inhibition for input `CCS(=O)(=O)c1ccc(OC)c(Nc2nccc(N(C)c3ccc4c(C)n[nH]c4c3)n2)c1`
Response line: 91.2%

Prompt line: Sample `Cc1ccc(Nc2ccnc(Nc3cccc(C(N)=O)c3)n2)cc1O` — what was its inhibition?
Response line: 97.8%

Prompt line: For the compound `Cc1ccc2c(-c3ccnc(Nc4cccc(C(F)(F)F)c4)n3)c(-c3ccccc3)nn2n1` , what inhibition is on record?
Response line: 21.2%

Prompt line: Entry `CC(C)c1ccc2c(c1)NC(=O)/C2=N/Nc1ccc(S(N)(=O)=O)cc1` : reported inhibition = ?
Response line: 2.87%

---

Each entry below carries its reported inhibition.
# system-name: NUAK family SNF1-like kinase 1 (Homo sapiens) (UniProt O60285);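 further: reported values are mean inhibition of ARK5 (NUAK1), from the GSK PKIS screen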
# Sequence (whole entry): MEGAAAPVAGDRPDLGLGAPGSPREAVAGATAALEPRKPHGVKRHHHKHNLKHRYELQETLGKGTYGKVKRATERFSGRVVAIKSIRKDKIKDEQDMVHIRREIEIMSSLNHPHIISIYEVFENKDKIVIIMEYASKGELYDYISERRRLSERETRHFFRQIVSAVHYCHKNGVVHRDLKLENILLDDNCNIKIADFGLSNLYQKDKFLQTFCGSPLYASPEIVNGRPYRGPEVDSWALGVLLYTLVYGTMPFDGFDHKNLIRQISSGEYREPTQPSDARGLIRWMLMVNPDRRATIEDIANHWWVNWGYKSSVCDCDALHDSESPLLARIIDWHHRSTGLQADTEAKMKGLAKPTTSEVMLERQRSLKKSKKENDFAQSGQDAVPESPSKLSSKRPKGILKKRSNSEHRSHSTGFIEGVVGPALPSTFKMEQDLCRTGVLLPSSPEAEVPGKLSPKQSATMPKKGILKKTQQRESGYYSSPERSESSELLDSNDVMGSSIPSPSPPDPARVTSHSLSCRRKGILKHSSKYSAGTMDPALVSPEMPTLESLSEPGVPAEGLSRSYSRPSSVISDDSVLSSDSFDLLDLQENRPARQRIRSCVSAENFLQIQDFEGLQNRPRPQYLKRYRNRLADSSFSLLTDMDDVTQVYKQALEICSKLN
# particulars: at 0.1 µM
Provide the reading as a plain figure in %.

Worked examples follow.
>>> reported_measurement("NS(=O)(=O)c1ccc(N/N=C2\\C(=O)Nc3ccc(Cl)cc32)cc1")
11
>>> reported_measurement("COc1cccc(-n2ncc3c(N/N=C/c4ccc(C)cc4)ncnc32)c1")
6.88
>>> reported_measurement("CS(=O)(=O)Nc1cccc(-c2ccc3c(NC(=O)C4CC4)n[nH]c3c2)c1")
-0.11

Prompt line: What value of measured inhibition is listed for `NS(=O)(=O)c1cccc(Nc2cc(-c3ccc(F)cc3)n[nH]2)c1` ?
Response line: -3.46

Prompt line: Given the compound `O=C1Nc2ccccc2/C1=C/Nc1ccc2[nH]c(=O)[nH]c2c1` , what is its reported inhibition?
Response line: 12.6

Prompt line: Request the reported inhibition associated with `CCn1c(-c2nonc2N)nc2c(C#CC(C)(C)O)nc(OCCNC)cc21`
Response line: 1.05

Prompt line: So what's the measured inhibition for this one? `O=S(=O)(CCOCc1ccc(-c2ccc3ncnc(Nc4ccc(OCc5cccc(F)c5)c(Cl)c4)c3c2)o1)c1ccccc1`
Response line: -2.09

Prompt line: Name the recorded inhibition for `COc1cc(/C=N/Nc2ncnc3c2cnn3C(C)C)ccc1O` .
Response line: 7.43

Prompt line: Requested read-out: inhibition. Entry: CCCN1CCCC(c2ccc(Nc3nc(Nc4cc(F)ccc4C(N)=O)c4cc[nH]c4n3)c(OC)c2)C1 (stereo unspecified)
Response line: 30.2

Prompt line: // query inhibition value for entry `CCOc1nccc2c1nc(-c1nonc1N)n2CC`
Response line: 7.99

Prompt line: # inhibition lookup, item `Nc1nccc(-c2c(-c3ccc(F)cc3)ncn2CCCN2CCOCC2)n1`
Response line: 3.4

Prompt line: For the compound `N#Cc1cccc(Nc2nccc(-c3cnn4ncccc34)n2)c1` , what inhibition is on record?
Response line: 38.5

Prompt line: Reported inhibition for `CCS(=O)(=O)c1ccc(OC)c(Nc2ncc(-c3cccc(OC)c3)o2)c1` : what is it?
Response line: 2.41

Prompt line: Recorded inhibition for `Cc1ccc(NC(=O)CC2CC2)cc1-c1ccc(C(=O)NCC2CC2)cc1` , please?
Response line: 2.19

Prompt line: Request the reported inhibition associated with `Cc1ccc2c(-c3ccnc(Nc4ccc5c(c4)OCCO5)n3)c(-c3ccc(C(F)(F)F)cc3)nn2n1`
Response line: -1.23

Prompt line: Requested read-out: inhibition. Entry: `NS(=O)(=O)c1ccc(Nc2cc(-c3cccc(O)c3)n[nH]2)cc1`
Response line: 5.05

Prompt line: Bench note: what inhibition did `COc1ccc2ncnc(Nc3ccc(OCc4ccccc4)cc3)c2c1` show?
Response line: 0.25

Prompt line: // returns reported inhibition for input `COC(=O)c1cncc(/C=C/c2c(C)cc(O)cc2C)c1`
Response line: 3.22

Prompt line: Which inhibition value belongs to `COc1cc(Nc2nccc(-c3cnn4ncccc34)n2)cc(OC)c1` ?
Response line: 69.1

Prompt line: Could you share which inhibition value was measured for `N#Cc1c(NC(=O)c2ccccc2F)sc2c1CCCC2` ?
Response line: 2.6

Prompt line: Item `Nc1nccc(-c2c(-c3ccc(F)cc3)nn3cc(C(F)(F)F)ccc23)n1` has what recorded inhibition?
Response line: 0.16

---

# system-name: Tyrosine-protein kinase Lyn (Homo sapiens) (UniProt P07948);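 further: kinase tested as its LYN B splice variant, values given as mean percent inhibition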
# Sequence (P07948 2-512 limits assumed): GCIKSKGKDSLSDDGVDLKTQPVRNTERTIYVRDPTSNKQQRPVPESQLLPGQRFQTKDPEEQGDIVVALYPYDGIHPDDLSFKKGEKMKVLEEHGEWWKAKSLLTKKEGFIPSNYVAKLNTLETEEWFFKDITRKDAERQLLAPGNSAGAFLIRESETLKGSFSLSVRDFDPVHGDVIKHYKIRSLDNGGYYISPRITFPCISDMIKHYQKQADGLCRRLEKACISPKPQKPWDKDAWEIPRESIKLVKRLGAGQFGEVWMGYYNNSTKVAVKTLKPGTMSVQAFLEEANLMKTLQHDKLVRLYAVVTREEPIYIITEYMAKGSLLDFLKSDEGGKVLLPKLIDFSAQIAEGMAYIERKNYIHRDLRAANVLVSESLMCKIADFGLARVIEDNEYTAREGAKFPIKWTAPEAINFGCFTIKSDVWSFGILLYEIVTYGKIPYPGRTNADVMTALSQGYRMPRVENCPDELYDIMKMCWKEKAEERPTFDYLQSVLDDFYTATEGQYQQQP
# particulars: at 1 µM
# Description: GSK_PKIS: LYN B (splice variant) mean inhibition at 1 uM [Nanosyn]
Reported inhibition values for the following compounds.
Just the number in %, nothing appended.

>>> reported_measurement("Cc1nc(-c2ccccc2)n2nc(NCCCN3CCOCC3)ncc12")
2.72
>>> reported_measurement("CN(c1ccc(NC(=O)Nc2ccc(OC(F)(F)F)cc2)cc1)c1ccnc(Nc2cccc(S(N)(=O)=O)c2)n1")
83.6
>>> reported_measurement("C[C@@H](Oc1cc(-n2cnc3ccc(OC[C@@H](O)CO)cc32)sc1C(N)=O)c1ccccc1Cl")
2.72
>>> reported_measurement("COc1ccc2ncnc(Nc3ccc(OCc4ccccc4)cc3)c2c1")
4.75
>>> reported_measurement("Oc1cccc(-c2nc(-c3ccccc3)[nH]c2-c2ccncc2)c1")
25.4

Prompt line: May I ask what inhibition has been recorded for `CCn1c(-c2nonc2N)nc2c(C#CC(C)(C)O)nc(OCCNC)cc21` ?
Response line: 3.02

Prompt line: # inhibition lookup, item `CCOc1nccc2c1nc(-c1nonc1N)n2CC`
Response line: 4.84

Prompt line: # input compound: `Cc1ccc(Nc2ccnc(Nc3cccc(C(N)=O)c3)n2)cc1O` ; wanted: its inhibition
Response line: 88.8

Prompt line: Endpoint output: inhibition of `Cc1ccc(NC(=O)CC2CC2)cc1-c1ccc(C(=O)NCC2CC2)cc1` . Value?
Response line: 6.24

Prompt line: Give its inhibition value. Item: `Nc1nccc(C#Cc2cncnc2Nc2ccc(OCc3cccc(F)c3)c(Cl)c2)n1`
Response line: 1.57

Prompt line: Tell me the measured inhibition of `c1ccc(Nc2ncc(-c3ccccc3)o2)cc1` , please.
Response line: 7.76

Prompt line: Value lookup for inhibition; key = `COc1cccc(-n2nc(C)c3c(N/N=C(\C)c4ccncc4)ncnc32)c1`
Response line: 1.38

Prompt line: What does the record list as inhibition for `NS(=O)(=O)c1ccc(Nc2cc(-c3cccc(O)c3)n[nH]2)cc1` ?
Response line: 3.96

Prompt line: // query inhibition value for entry `CCS(=O)(=O)c1ccc(OC)c(Nc2ncc(-c3cccc(OC)c3)o2)c1`
Response line: 63.6
